Assay: amyloid nucleation score (Sup35N fusion, yeast selection) (log enrichment); library NNK3; higher = more nucleation; inactive = no reads after selection;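 note: zero at mode of non-aggregating sequences after 7 days selection at 30°C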
Measurement name: amyloid nucleation score

{"Substance": "SCGGCLFPDHKCCTSYARWV", "Meas value": "inactive"}
{"Substance": "VIVCNECLG", "Meas value": 0.546}
{"Substance": "KALSCSRSFAVKVVYTQDP", "Meas value": "inactive"}
{"Substance": "EVLLFVFKEGTHLVGLW", "Meas value": "inactive"}
{"Substance": "IDLRVTRNIFQSATLLMFFW", "Meas value": "inactive"}
{"Substance": "SNAFVYFRFLTFDSRFCCYY", "Meas value": 1.56}
{"Substance": "PDLRLMVVCASYPGSATRAM", "Meas value": "inactive"}
{"Substance": "KLDTVYRPSMRACVCNREFV", "Meas value": -0.515}
{"Substance": "MGRLKCTVKPVSYEMWKVYA", "Meas value": "inactive"}
{"Substance": "VMIDRWRNASNWIMFISHYR", "Meas value": -0.611}
{"Substance": "TFKMQWECVIA", "Meas value": 0.657}
{"Substance": "SFRHKYYEHRPTIWDMDCDL", "Meas value": "inactive"}
{"Substance": "FRSKLTW", "Meas value": "inactive"}
{"Substance": "VLGCVGLCYHRYVNALGGAE", "Meas value": "inactive"}
{"Substance": "PTTKYFLYNIYSFV", "Meas value": 2.02}
{"Substance": "HEYSSKILMM", "Meas value": "inactive"}
{"Substance": "TLRLLDTVMWHKLGGTRAMS", "Meas value": "inactive"}
{"Substance": "DLFKCGRGHVIFVLSRLLIS", "Meas value": -0.459}
{"Substance": "HSVPLPMLYFHYNMILLMLL", "Meas value": "inactive"}
{"Substance": "CRVEVAICHRPLCSKVTLDG", "Meas value": "inactive"}
{"Substance": "KLVWRERICEDGFYIKTTFL", "Meas value": "inactive"}
{"Substance": "IERSNFLQCPVRGLRNTARV", "Meas value": 0.526}
{"Substance": "FAVDFLCHVS", "Meas value": "inactive"}
{"Substance": "TWWCLN", "Meas value": "inactive"}
{"Substance": "MTPMRAAMTLICHMPARRFS", "Meas value": "inactive"}
{"Substance": "VLWAFNLMLVDWRIRFQNWA", "Meas value": "inactive"}
{"Substance": "GIYVVLNCISIFRLWLLSER", "Meas value": "inactive"}
{"Substance": "FCFQAFF", "Meas value": "inactive"}
{"Substance": "LFGFLYFVV", "Meas value": -0.564}
{"Substance": "LYSGVIAHCIVIPIELFSVS", "Meas value": "inactive"}
{"Substance": "LNFVWNFNWLYWFLYGIERV", "Meas value": "inactive"}
{"Substance": "FKRLLARV", "Meas value": -0.362}
{"Substance": "VLQHRLVFDFYKFCMSTMVH", "Meas value": "inactive"}
{"Substance": "AHGNINFSLCDWHHIIQFSM", "Meas value": "inactive"}
{"Substance": "CKKGRLVGRSRCLVCWMCCM", "Meas value": -0.155}
{"Substance": "DMIVNYCTAQRSFVSIVSIK", "Meas value": "inactive"}
{"Substance": "HRSRISTWMWG", "Meas value": "inactive"}
{"Substance": "MLRDFFQ", "Meas value": "inactive"}
{"Substance": "RDGNRVQMVSIPIQVSAMLG", "Meas value": "inactive"}
{"Substance": "TFRWFDGIKTLMMD", "Meas value": "inactive"}
{"Substance": "ACAGMDCKGYMFLWSFGRAW", "Meas value": "inactive"}
{"Substance": "QWLAEGYT", "Meas value": "inactive"}
{"Substance": "SYLYVTKYVLFDR", "Meas value": "inactive"}
{"Substance": "SSAPEQRF", "Meas value": "inactive"}
{"Substance": "VLWPADFGCPARVQESGSSQ", "Meas value": -0.387}
